# assay: chemical genetic growth profiling, strain panel (AID 1159580);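 also: tested at 20 µM; growth read once vehicle control cultures reached saturation at 30 °C; lower values mean less growth of the strain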
# condition: S. cerevisiae deletion strains, growth OD, locus YBR021W, strain FUR4
Hit rate of the full screen: of about 5,500 compounds, about 2,000 (36%) were called active. About 18% were inconclusive and are not listed. Rule as the data show it: active = normalized growth mostly below about 0.91 (no sharp cut-off); inconclusive = no clear call, values can overlap the other calls; inactive = mostly above about 0.92. The list shows a part of the results.
# output must be one of active, inactive

Below are worked cases with known answers.
compound	label
COc1cc(C)c2c(c1C=O)Oc1c(c(C)c(O)c3c1C(O)OC3=O)OC2=O (stereo not given)	inactive
CO[C@@H]1C[C@@H](C[C@H]2CC[C@H](C)[C@H]([C@@H](C)C(=O)O)O2)O[C@]2(O[C@](C)([C@H]3CC[C@@](C)(C4O[C@@H](C5O[C@@](O)(CO)[C@H](C)C[C@@H]5C)C[C@@H]4C)O3)C[C@H]2C)[C@@H]1C (stereo not given in full)	active

**Query** Per the assay record, what outcome was assigned to `COc1ccc(/C=C/c2cc(O)cc(O)c2)cc1` ?
**Result** inactive

**Query** Dear colleague, could you share the recorded outcome for `COc1ccc(/C=C/c2cc(O)cc(O[C@@H]3O[C@H](CO)[C@@H](O)[C@H](O)[C@H]3O)c2)cc1O` when you have a moment?
**Result** inactive

**Query** Lab log entry: `C/C=C/c1ccc(OC)cc1` — outcome as called in the assay?
**Result** inactive

**Query** What did the test return for `O=C(O)c1cc(=O)c2c(OCC(O)COc3cccc4oc(C(=O)O)cc(=O)c34)cccc2o1` ?
**Result** inactive

**Query** Identify the outcome logged in this assay for the compound shown: `COc1ccc(/C=C/C(=O)O)cc1OC`
**Result** inactive

**Query** What did the test return for `Oc1cc(O)cc(/C=C/c2ccccc2)c1` ?
**Result** inactive

**Query** Hi, do you know how `NCc1ccc(S(N)(=O)=O)cc1` came out in this test?
**Result** inactive

**Query** Given `O=C(O)c1cc(=O)c(O)c2c(O)c(O)ccc2c1` , state the outcome it received in this test.
**Result** inactive
